- TARGET: α-amylase enzyme (diastase)
- EXPERIMENT_NOTES: Antidiabetic activity: α-amylase inhibitory activity using diastase, colorimetric method
- Format: biochemical
- CONDITION_SET: calculated via graph of % inhibition
Below, each entry is listed with its recorded IC50 (antidiabetic activity, α-amylase).
MEASUREMENT_LABEL: IC50 (antidiabetic activity, α-amylase) (µg/mL)

>>> recorded_measurement("COc1ccccc1C=C1SC(=O)NC1=O [Compound 15]")
22.35
>>> recorded_measurement("O=C1NC(=O)C(=Cc2ccc(Cl)cc2Cl)S1 [Compound 3]")
43.45
>>> recorded_measurement("O=C1NC(=O)C(=Cc2ccccc2[N+](=O)[O-])S1 [Compound 4]")
43.63
>>> recorded_measurement("O=C1NC(=O)C(=Cc2ccccc2Cl)S1 [Compound 13]")
48.45
>>> recorded_measurement("O=C1NC(=O)C(=Cc2ccc(O)cc2)S1 [Compound 5]")
56.64
>>> recorded_measurement("O=C1NC(=O)C(=Cc2cccc([N+](=O)[O-])c2)S1 [Compound 7]")
56.09
>>> recorded_measurement("O=Cc1ccc(C=C2SC(=O)NC2=O)cc1 [Compound 21]")
38.65
>>> recorded_measurement("COc1cccc(C=C2SC(=O)NC2=O)c1 [Compound 16]")
40.92
